Observed IC50 values for cGMP-PDE V (Homo sapiens, UniProt O76074) are listed in what follows.
recorded-endpoint: IC50 (µM)

structure=CCc1nn(C2CCCC2)c2nc(-c3cccc(OCCN(C)C)c3)[nH]c(=O)c12 value=0.54
structure=CCCOc1ccccc1-c1nc2n(C3CCCC3)[nH]c(CC)c-2c(=O)n1 value=0.0016

I = CCc1[nH]n(C2CCCC2)c2nc(-c3ccc(OCCN4CCOCC4)cc3)nc(=O)c1-2
II = CCOC(=O)COc1cccc(-c2nc3n(C4CCCC4)[nH]c(CC)c-3c(=O)n2)c1
III = CCc1[nH]n(C2CCCC2)c2nc(-c3ccccc3)nc(=O)c1-2
Prompt: Please give the order of these molecules when sorted by IC50, largest value leading. In plain terms: list the labels in the order you were asked to.
Response: I, III, II

* * *

Target: cGMP-PDE V (Homo sapiens, UniProt O76074)
Assay: biochemical
Design: species or system various animal species and man
Conditions: 0.01 μM; read-out: Percent Inhibition cGMP-PDE V
recorded-endpoint: inhibition at 0.01 µM (%)

structure=CCc1[nH]n(C2CCCC2)c2nc(-c3ccc(OC)c(OCCN4CCOCC4)c3)nc(=O)c1-2 value=13
structure=CCc1[nH]n(C2CCCC2)c2nc(-c3cccc(OCc4ccncc4)c3)nc(=O)c1-2 value=25

I = CCc1[nH]n(C2CCCC2)c2nc(-c3ccccc3OCCOC)nc(=O)c1-2
II = CCc1[nH]n(C2CCCC2)c2nc(-c3cc(OCCN4CCOCC4)cc(OCCN4CCOCC4)c3)nc(=O)c1-2
Prompt: Recorded inhibition at 0.01 µM values differ for I and II ; which one is higher? Field: selected label. Fill in the label of the entry you choose.
Response: I

* * *

Molecular target: cGMP-PDE V (Homo sapiens, UniProt O76074)
Assay: biochemical
Set-up: species or system various animal species and man
Conditions: 1 μM; read-out: Percent Inhibition cGMP-PDE V
recorded-endpoint: inhibition at 1 µM (%)

Field: example entries. Status: answers known.
compound="CCc1nn(C2CCCC2)c2nc(-c3ccc(-n4ccnc4)cc3)[nH]c(=O)c12 [8 (b)]" value=70
compound="CCc1[nH]n(C2CCCC2)c2nc(-c3cccc(OCCN4CCSCC4)c3)nc(=O)c1-2 [41 (c)]" value=56

A = CCOC(=O)COc1ccccc1-c1nc2n(C3CCCC3)[nH]c(CC)c-2c(=O)n1 [12 (b)]
B = CCc1[nH]n(C2CCCC2)c2nc(-c3ccccc3OCCCN3CCOCC3)nc(=O)c1-2 [26 (c)]
Prompt: Thinking about recorded inhibition at 1 µM values, which is higher, A or B ? Bench note: the answer is the label of the chosen record.
Response: A
(A: 74%, B: 28%)

* * *

Target: cGMP-PDE V (Homo sapiens)
Assay: biochemical
Set-up: species or system various animal species and man
Details: 0.1 μM; read-out: Percent Inhibition cGMP-PDE V
recorded-endpoint: inhibition at 0.1 µM (%)

Worked cases, answers included:
compound=CCc1[nH]n(C2CCCC2)c2nc(-c3cccc(OCCN4CCSCC4)c3)nc(=O)c1-2 value=46
compound=CCc1[nH]n(C2CCCC2)c2nc(-c3ccc(OC)c(OCCN4CCOCC4)c3)nc(=O)c1-2 value=58
compound=CCc1[nH]n(C2CCCC2)c2nc(-c3ccc(Cl)cc3O)nc(=O)c1-2 value=9
compound=CCOc1cc(N(CC)CC)ccc1-c1nc2n(C3CCCC3)[nH]c(CC)c-2c(=O)n1 value=31
compound=CCc1[nH]n(C2CCCC2)c2nc(-c3ccccc3-n3ccnc3)nc(=O)c1-2 value=21

1 = CCc1nn(C2CCCC2)c2nc(-c3ccc4c(c3)CCO4)[nH]c(=O)c12 [Example 32, hydrate]
2 = CCc1[nH]n(C2CCCC2)c2nc(-c3cccc(OC4CCCCN(C)C4)c3)nc(=O)c1-2 (stereo not shown)
Prompt: Which is greater in inhibition at 0.1 µM, the first item 1 or the second item 2 ? Reply briefly: the label of your chosen item.
Response: 2
(2: 41%, 1: 23%)
